# TESTED TARGET: Syk (Homo sapiens)
# Construct: purchased Carna Biosciences
# TEST METHOD NOTES: Syk HTRF assay
# Type: biochemical
# ASSAY CONDITIONS: read-out: Activity Level (Syk HTRF assay IC50)
pIC50: −log10 of the molar value.
ASSAY ENDPOINT: pIC50

Answered examples (5):
Short answer for CNC(=O)c1ccc(Nc2nc3cccc(-c4ccc(-c5c[nH]cn5)cc4)n3n2)cc1 : pIC50 was 6.60 to 11.30

Looking up CN1C(=O)Cc2ccc(Nc3nc4cccc(CC5CCOCC5)n4n3)cc21 , I found its pIC50 recorded as 5.00 to 6.00

Field pIC50 (entry CC(=O)Nc1cccc(-c2cccc3nc(Nc4ccccc4)nn23)c1 ) reads 5.00 to 6.00

Data point: CN1C(=O)C(C)(C)c2ccc(Nc3nc4cccc(NC5CCOCC5)n4n3)cc21 ; pIC50 = 6.60 to 11.30

c1ccc(-c2cccc3nc(Nc4cccnc4)nn23)cc1 has a reported pIC50 of 6.00 to 6.30

Continuing:
// field: pIC50; key: O=C1NCc2cc(Nc3nc4cccc(-c5ccccc5)n4n3)ccc21 ; value = 6.30 to 6.60

Lookup result for Nc1cc(Nc2nc3cccc(-c4ccccc4)n3n2)ccn1 ; measured pIC50: 6.00 to 6.30

pIC50 for Cc1nc2ccc(Nc3nc4cccc(-c5cccc(O)c5)n4n3)cc2[nH]1 is 6.60 to 11.30

What the record says about CN1C(=O)Cc2ccc(Nc3nc4cccc(NC5CCOCC5)n4n3)cc21 : pIC50 is 5.00 to 6.00

----------
# TESTED TARGET: Syk (Homo sapiens, UniProt P43405)
# Construct: purchased Carna Biosciences
# TEST METHOD NOTES: Syk HTRF assay
# Type: biochemical
# ASSAY CONDITIONS: activity levels A-D, read-out: Activity Level (IC50 in the Syk HTRF assay)
ASSAY ENDPOINT: IC50

Check out these entries, answers already filled in.
Observed IC50 on Syk (Homo sapiens, UniProt P43405), entry Cc1cc(C)cc(Nc2nc3cccc(N[C@H]4CC[C@@H](O)CC4)n3n2)c1 , equals 0.005 to 250 nM

Tested on Syk (Homo sapiens, UniProt P43405): Nc1n[nH]c2cc(Nc3nc4cccc(N[C@H]5CC[C@@H](O)CC5)n4n3)ccc12 . Observed IC50: 0.005 to 250 nM

IC50 of Cc1cc(Nc2nc3cccc(N[C@H]4CC[C@@H](O)CC4)n3n2)cc(C)n1 , assay on Syk (Homo sapiens, UniProt P43405), is 500 to 1000 nM

So the reported IC50 for O[C@H]1CC[C@@H](Nc2cccc3nc(Nc4ccnc(OCCN5CCCC5)c4)nn23)CC1 , on Syk (Homo sapiens, UniProt P43405), turned out to be 500 to 1000 nM

The recorded IC50 with Syk (Homo sapiens, UniProt P43405) for OC[C@@H]1CCN(c2cccc3nc(Nc4ccc(C(F)(F)F)cc4)nn23)C1 was 250 to 500 nM

---
Recorded IC50 for NC(=O)c1ccc(Nc2nc3cccc(N[C@H]4CC[C@@H](O)CC4)n3n2)cc1F on Syk (Homo sapiens, UniProt P43405) was 0.005 to 250 nM

Form: item Cc1n[nH]c2cc(Nc3nc4cccc(C(O)C5CCOCC5)n4n3)ccc12 (stereo not shown) ; test system Syk (Homo sapiens, UniProt P43405); IC50: 500 to 1000 nM

Field IC50 (Syk (Homo sapiens, UniProt P43405)), entry OC[C@H]1CCCC[C@H]1Nc1cccc2nc(Nc3ccc(C(F)(F)F)cc3)nn12 (stereo in doubt) : 1000 to 10000 nM

----------
// reported IC50 for each item listed
# TESTED TARGET: Syk (Homo sapiens)
# Construct: purchased Carna Biosciences
# TEST METHOD NOTES: Syk HTRF assay
# Type: biochemical
# ASSAY CONDITIONS: read-out: Activity Level (Syk HTRF assay IC50)

Reported IC50 for Nc1n[nH]c2cc(Nc3nc4cccc(-c5ccccc5)n4n3)ccc12 was 0.005 to 250 nM

Entry under test: Cn1ncc2cc(Nc3nc4cccc(N[C@H]5CC[C@@H](O)CC5)n4n3)cnc21 . Its IC50 was 0.005 to 250 nM

Others:
Lab note: Oc1ccc2cc(Nc3nc4cccc(-c5ccccc5)n4n3)ccc2n1 gave IC50 of 0.005 to 250 nM

# IC50 of NC(=O)c1ccc(Nc2nc3cccc(-c4cccc(O)c4)n3n2)cc1 = 0.005 to 250 nM

Lab note: CNC(=O)c1ccc(Nc2nc3cccc(-c4cc(Cl)cc(CCCN)c4)n3n2)cc1 gave IC50 of 0.005 to 250 nM

For record NC(=O)c1ccc(Nc2nc3cccc(-c4ccccc4)n3n2)cn1 the listed IC50 is 1000 to 10000 nM

----------
# TESTED TARGET: Syk (Homo sapiens)
# Construct: purchased Carna Biosciences
# TEST METHOD NOTES: Syk HTRF assay
# Type: biochemical
# ASSAY CONDITIONS: IC50 activity level, read-out: Activity Level
IC50 values for the compounds below.

Field IC50 (Syk (Homo sapiens)), entry Fc1ccc(Nc2nc3cccc(N[C@H]4CCCNC4)n3n2)cc1 : 0.005 to 250 nM

New cases:
Sample c1ccc(Nc2nc3cccc(-c4ccccn4)n3n2)cc1 , system: Syk (Homo sapiens). Its IC50 is 1000 to 10000 nM

Tested on Syk (Homo sapiens): C[C@@H](CO)Cc1cccc2nc(Nc3ccccc3)nn12 . Observed IC50: 500 to 1000 nM

Item c1ccc(Nc2nc3cccc(-c4ccc5cn[nH]c5c4)n3n2)cc1 ; assay system Syk (Homo sapiens); IC50 reported as 0.005 to 250 nM

Kindly note: Syk (Homo sapiens), NC(=O)c1ccc(Nc2nc3cccc(NC4CCCCC4)n3n2)cc1 , IC50 value reported: 500 to 1000 nM

Value sought: IC50, system Syk (Homo sapiens), item c1ccc(Nc2nc3cccc(-c4cccnc4)n3n2)cc1 . Result: 1000 to 10000 nM

# lookup: Cc1cccc2nc(Nc3ccc4c(c3)NC(=O)C4(C)C)nn12 on Syk (Homo sapiens), IC50 = 0.005 to 250 nM

Per the reported Syk (Homo sapiens) data, c1ccc(Nc2nc3cccc(-c4ccncc4)n3n2)cc1 has IC50 of 250 to 500 nM

GET /values?item= NC(=O)c1cc(-c2cccc3nc(Nc4ccc(F)cc4)nn23)ccn1 &system= Syk (Homo sapiens) returns IC50: 1000 to 10000 nM

----------
# TESTED TARGET: Syk (Homo sapiens)
# Construct: purchased Carna Biosciences
# TEST METHOD NOTES: Syk HTRF assay
# Assay type: biochemical
# ASSAY CONDITIONS: read-out: Activity Level (Syk HTRF assay IC50)
ASSAY ENDPOINT: IC50

Entry under test: O[C@H]1CC[C@@H](Nc2cccc3nc(Nc4cnc5cn[nH]c5c4)nn23)CC1 . Its IC50 was 0.005 to 250 nM

Looking up COCc1nc2ccc(Nc3nc4cccc(NC5CCOCC5)n4n3)cc2[nH]1 , I found its IC50 recorded as 250 to 500 nM

According to the records, this compound CN(c1cccc2nc(Nc3ccc4c(c3)NC(=O)C4(C)C)nn12)C1CCOC1 (stereo in doubt) displays IC50 of 0.005 to 250 nM

Lab note: measured IC50 of CN1C(=O)C(C)(C)c2ccc(Nc3nc4cccc(NC5CCOC5)n4n3)cc21 (stereo in doubt) was 0.005 to 250 nM

----------
Reported pIC50 values follow for various compounds
# TESTED TARGET: Syk (Homo sapiens, UniProt P43405)
# Construct: purchased Carna Biosciences
# TEST METHOD NOTES: Syk HTRF assay
# Type: biochemical
# ASSAY CONDITIONS: read-out: Activity Level (Syk HTRF assay IC50)
pIC50: −log10 of the molar value.

Sample answers from the record:
Field pIC50 (entry c1ccc(-c2cccc3nc(Nc4ccc(N5CCOCC5)nc4)nn23)cc1 ) reads 6.60 to 11.30

GET /value?item= Oc1cccc(-c2cccc3nc(Nc4ccc(N5CCOCC5)cc4)nn23)c1 &field=pIC50 returns 6.60 to 11.30

With those in mind, consider the next compound.
# pIC50 (compound: Fc1cccc(-c2cccc3nc(Nc4ccccc4)nn23)c1 ) is 6.00 to 6.30

----------
# TESTED TARGET: Syk (Homo sapiens, UniProt P43405)
# Construct: purchased Carna Biosciences
# TEST METHOD NOTES: Syk HTRF assay
# Format: biochemical
# ASSAY CONDITIONS: activity levels A-D, read-out: Activity Level (IC50 in the Syk HTRF assay)
ASSAY ENDPOINT: IC50

Entry CNC(=O)c1ccc(Nc2nc3cccc(N4CCCC4)n3n2)cc1 — recorded IC50 = 250 to 500 nM

Data point: OC1CCCC[C@H]1Nc1cccc2nc(Nc3ccc(C(F)(F)F)cc3)nn12 (stereo in doubt) ; IC50 = 1000 to 10000 nM

More entries:
Sure, the documented IC50 for CC(c1cc[nH]c(=O)c1)c1cccc2nc(Nc3ccc(C(F)(F)F)cc3)nn12 (stereo not shown) is 0.005 to 250 nM

Entry under test: OC[C@H]1CCCN1c1cccc2nc(Nc3ccc(C(F)(F)F)cc3)nn12 . Its IC50 was 250 to 500 nM
